tested on: OVCAR-5 ovarian; assay: NCI tumour cell line growth inhibition, 48 h
Kindly state TGI for each of the entries shown.
Numeric only. Scale: µM

Q: Give TGI for the following compound: COC(=O)c1c(O)ccc2c1c1c(n2CCc2ccc(OC)c(OC)c2)C(=O)c2ccccc2C1=O
Result: 34.1

Q: // Input: CCCCCCCCCCCCCCCCn1cc[n+](C)c1 . Output its TGI only.
Result: 1.64

Q: Return reported TGI. Input compound: O=C1N[C@H]2C(=O)c3c(Br)sc(Br)c3[C@H]2O1
Result: 34.3

Q: Name the recorded TGI of the compound listed here: COc1cccc2c1C(=O)c1c(O)c3c(c(O)c1C2=O)C[C@](O)(C(=O)CO)C[C@H]3O[C@@H]1C[C@@H](NC(=O)CCCN(C)C2(c3ccc(F)cc3)CC3CCC2C3)[C@H](O)[C@@H](C)O1 (stereo not given in full)
Result: 1.67

Q: Give TGI for O=C1OC2(c3ccc(O)cc3Oc3cc(O)ccc32)c2cccc3cccc1c23
Result: 40.7

Q: Query TGI for CCOC(=O)C1=C(C(=O)OCC)SC2(S1)C(C(=O)OCC)=C(C(=O)OCC)Sc1c2ssc1=O
Result: 12.4

Q: Note TGI for the compound shown: CCCCCCOC(=O)CC1=C(C)/C(=C/c2[nH]c(-c3ccc[nH]3)cc2OC)N=C1C
Result: 2

Q: Look up and report measured TGI for this entry: Cc1cccc2c(=O)c3c(sc12)c(NCCCNCCO)nc1ccccc13
Result: 3.02

Q: Note TGI for the compound shown: Nc1ccc(Oc2ccc(C34CC5CC(C3)CC(c3ccc(Oc6ccc(N)cc6C(F)(F)F)cc3)(C5)C4)cc2)c(C(F)(F)F)c1
Result: 70.3

----------
system: OVCAR-8 ovarian; test: NCI tumour cell line growth inhibition, 48 h
Assign TGI to each entry below.

Q: Read the entry CCCC(=O)OCC1OC(n2cc(F)c(=O)[nH]c2=O)C(F)C1O (stereo unspecified) and write its reported TGI.
Result: > 100 µM

Q: Please report the measured TGI for Cc1nc2ccccc2c(=O)n1/N=C(\N=Nc1ccccc1)c1ccccc1Cl
Result: > 100 µM

Q: Recall and state the measured TGI for O=c1c2ccccc2n2c(-c3ccccc3O)nnc2n1-c1ccccc1 .
Result: > 100 µM

Q: Give the value of TGI reported for the following: NC(=O)N/N=C\CC(O)(C(F)(F)Cl)C(F)(F)Cl
Result: > 10 µM

Q: Give reported TGI value for O=C1c2ccccc2CC12Cc1cc3c(cc1C2)CCC3
Result: > 100 µM

Q: Indicate the recorded TGI value for this compound: COc1ccc(/C=C/c2onc3c(=O)n(C)nc(-c4ccccc4)c23)cc1
Result: > 100 µM

Q: For the compound CC(NNC(=O)c1ccncc1)c1ccccc1 (stereo unspecified) , report TGI.
Result: > 100 µM

Q: Name the recorded TGI of the item O=C(COc1ccccc1)NNc1ccccc1 in your answer.
Result: > 300 µM

Q: Please give the documented TGI of COc1ccc(OC)c(N2CC(O)=C(c3nc4ccccc4s3)C2=N)c1
Result: > 100 µM

Q: Input Fc1cc2nc3n(c2cc1F)C(c1c(F)cccc1F)SC3 (stereo unspecified) , output reported TGI.
Result: > 100 µM

Q: Please give the documented TGI of O=Cc1ccc(-c2ccc(-c3nc4ccccc4s3)cc2)o1
Result: > 100 µM

Q: Supply measured TGI of CC1(O)CC2C(CC1SC1CC3C(CC1(C)O)C3(C)C)C2(C)C (stereo unspecified) in your reply.
Result: > 100 µM

Q: Return TGI for the following compound: COc1ccc2c(=O)c3ccoc3[nH]c2c1
Result: > 100 µM

Q: Look up and state reported TGI for COc1ccc2c(n1)Sc1nc3ccccc3nc1N2
Result: 57 µM

Q: Give reported TGI value for Cc1cc(C)n(-c2nc(-n3nc(C)cc3C)nc(-n3nc(C)cc3C)n2)n1
Result: > 100 µM

Q: Give TGI for OCc1ccc(-c2nc(-c3ccc4c(c3)OCO4)c(-c3ccccn3)[nH]2)cc1
Result: > 25 µM

Q: Give reported TGI value for CC(C)CCN(CCC(C)C)CC(=O)Nc1ccc(S(=O)(=O)c2ccc(NC(=O)CN(CCC(C)C)CCC(C)C)cc2)cc1
Result: > 100 µM

Q: Please list TGI recorded for the compound Cc1cc(C)c2c(=O)n(CC(O)CN(Cc3ccccc3)CC(O)Cn3sc4nc(C)cc(C)c4c3=O)sc2n1 (stereo unspecified)
Result: 34.5 µM

Q: Identify TGI associated with the compound COc1cc(/C=N/NC(=O)c2c(Cl)c(Cl)c(Cl)c(Cl)c2-c2nc3ccc(C(=O)c4ccccc4)cc3[nH]2)ccc1O
Result: > 100 µM

Q: // fetch TGI given entry COc1cc2c3c(n(CCCN=[N+]=[N-])c(=O)c2cc1OC)-c1ccc([N+](=O)[O-])cc1C3=O
Result: > 100 µM

Q: Quick one: give measured TGI for Nc1nc(Sc2ccc([N+](=O)[O-])c3nonc23)c2ncn(C3OC(CO)C(O)C3O)c2n1 (stereo unspecified)
Result: > 46 µM
